system: Staphylococcus epidermidis; test: Antibacterial activity against Staphylococcus epidermidis ATCC 12228 after 18 hrs by serial microdilution assay; type: functional; settings: ATCC 12228, 18 h
Give MIC for every item shown.

Task item: Using the record for Cc1cc2c(c(O)c1-c1c(C)cc3c(c1O)/C(=C/NCCn1cc(COCc4ccccc4)nn1)C(=O)C(O)=C3C(C)C)/C(=C/NCCn1cc(COCc3ccccc3)nn1)C(=O)C(O)=C2C(C)C , report its MIC.
Reply: > 256 µg/mL

Task item: Could you do the same for CCCCCc1cn(CCCN/C=C2\C(=O)C(O)=C(C(C)C)c3cc(C)c(-c4c(C)cc5c(c4O)/C(=C/NCCCn4cc(CCCCC)nn4)C(=O)C(O)=C5C(C)C)c(O)c32)nn1 , please?
Reply: > 256 µg/mL

Task item: Another compound: CCCCc1cn(CCCN/C=C2\C(=O)C(O)=C(C(C)C)c3cc(C)c(-c4c(C)cc5c(c4O)/C(=C/NCCCn4cc(CCCC)nn4)C(=O)C(O)=C5C(C)C)c(O)c32)nn1
Reply: > 256 µg/mL

Task item: Please do the same for CCCc1cn(CCN/C=C2\C(=O)C(O)=C(C(C)C)c3cc(C)c(-c4c(C)cc5c(c4O)/C(=C/NCCn4cc(CCC)nn4)C(=O)C(O)=C5C(C)C)c(O)c32)nn1 as well.
Reply: 256 µg/mL

Task item: Could you do the same for CCCCCc1cn(CCN/C=C2\C(=O)C(O)=C(C(C)C)c3cc(C)c(-c4c(C)cc5c(c4O)/C(=C/NCCn4cc(CCCCC)nn4)C(=O)C(O)=C5C(C)C)c(O)c32)nn1 , please?
Reply: > 256 µg/mL

Task item: Same for CCCCc1cn(CCN/C=C2\C(=O)C(O)=C(C(C)C)c3cc(C)c(-c4c(C)cc5c(c4O)/C(=C/NCCn4cc(CCCC)nn4)C(=O)C(O)=C5C(C)C)c(O)c32)nn1
Reply: > 256 µg/mL

Task item: Cc1cc2c(C(C)C)c(O)c(O)c(C=O)c2c(O)c1-c1c(C)cc2c(C(C)C)c(O)c(O)c(C=O)c2c1O , same question.
Reply: 16 µg/mL

Attribution: ChEMBL document CHEMBL4477242
